Test system: Splenocyte
methodDescription: Immunosuppressive activity in BALB/c mouse splenocyte assessed as reduction in ConA-induced mouse T-lymphocytes proliferation incubated for 48 hrs by MTT assay
Type: functional, cell-based
quantityMeasured: pEC50
Scale for pEC50: -log10 of concentration given in mol/L; no unit attached.

COC(=O)[C@@]12C(=O)[C@](C)(C(=O)c3cc(OC)c(O)c(O)c3C(C)=O)C(=O)[C@]1(C)C(C)=C[C@H]1[C@]3(C=O)CC[C@H](OC(C)=O)C(C)(C)[C@H]3CC[C@@]12C : 4.64

Next item in the queue.
What does the data say about its pEC50? Entry: COC(=O)[C@@]12C(=O)[C@](C)(Cc3c(O)c(C)cc(C(C)=O)c3O)C(=O)[C@]1(C)C(C)=C[C@H]1[C@]3(C=O)CC[C@H](OC(C)=O)C(C)(C)[C@H]3CC[C@@]12C
4.72
